Biological target: trypsin (Bos taurus, UniProt P00760)
Construct: purchased Pierce 20230
Sequence (P00760 24-246): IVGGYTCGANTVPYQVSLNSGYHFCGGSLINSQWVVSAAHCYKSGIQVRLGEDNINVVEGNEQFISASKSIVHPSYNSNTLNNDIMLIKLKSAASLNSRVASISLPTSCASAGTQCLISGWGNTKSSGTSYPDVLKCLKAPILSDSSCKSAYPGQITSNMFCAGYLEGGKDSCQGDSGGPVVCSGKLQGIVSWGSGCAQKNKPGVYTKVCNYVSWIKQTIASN
Type: in vitro ADME
Settings: pH 8
Description: 0.4 mL of trypsin immobilized on agarose (Pierce, catalog #20230) was washed with 0.8 mL of a digestion buffer (0.1 M NH4HCO3 buffer, pH 8.0). The gel was separated from the buffer after each wash by centrifugation. The washed enzyme was suspended in 1.6 mL of the digestion buffer. […] The incubation was quenched by filtering off the enzyme, and the residual substrate in the filtrate was quantified by HPLC-based peak detection at 280 nm.
metric: half-life (h)
Express the result in h but write the number alone.

Specify half-life for CC(=O)N[C@@H](CCC(=O)O)C(=O)N[C@@H](Cc1c[nH]c2ccccc12)C(=O)N[C@@H](C)C(=O)N[C@@]1(C)CCC/C=C\CCC[C@]2(CCC/C=C/CCCCCC[C@@](C)(C(N)=O)NC(=O)[C@H](Cc3c[nH]cn3)NC(=O)[C@H](C)NC(=O)[C@H](C)NC(=O)[C@H](CC(C)C)NC(=O)[C@H](Cc3ccccc3)NC(=O)[C@H](CCCCN)NC2=O)NC(=O)[C@H](C)NC(=O)[C@H](C)NC(=O)[C@H]([C@@H](C)O)NC1=O [Peptide 4] and stop.
2.87

The measured values listed here are drawn from patent US10301351B2.
